Measured cell viability by item
Test system: P12-Ichikawa
assay_overview: cell viability relative to DMSO control; higher = less cytotoxic
applied_conditions: RPMI 5 mM glucose + 10% FBS; 48 h; 1.71 µM

# compound, study_system, cell viability
measured = [
    ("C[C@]12CC[C@@H]3c4ccc(O)cc4CC[C@H]3[C@@H]1[C@@H](O)[C@@H](O)[C@@H]2O", "P12-Ichikawa", "121%"),
    ("Clc1ccc(-c2nc3sccn3c2/C=N/OCc2ccc(Cl)c(Cl)c2)cc1", "P12-Ichikawa", "110%"),
    ("CNC(=O)c1ccc2cc(C3(O)CCn4cncc43)ccc2c1 (stereo not given)", "P12-Ichikawa", "122%"),
    ("COc1cc(OC2CCN(C)CC2)ccc1Nc1ncc2c(n1)n(C1CCCC1)c(=O)n2C", "P12-Ichikawa", "81.3%"),
    ("CC(C)c1noc(N2CCC(COc3ccc(-c4ccc([S+](C)(=O)[O-])cc4)nc3)CC2)n1", "P12-Ichikawa", "118%"),
    ("Cc1ccccc1C(=O)c1ccc(Nc2ccc(Br)cc2N)cc1Cl", "P12-Ichikawa", "113%"),
    ("CC[C@H](/C=C/[C@@H](C)[C@H]1CC[C@H]2[C@@H]3CC=C4C[C@@H](O)CC[C@]4(C)[C@H]3CC[C@]12C)C(C)C", "P12-Ichikawa", "91.3%"),
    ("Cc1coc2c1C(=O)C(=O)c1c-2ccc2c(C)cccc12", "P12-Ichikawa", "123%"),
    ("N[S+]([O-])(=O)C1=C(Cl)C=C2\\N=C/N[S+]([O-])(=O)C2=C1", "P12-Ichikawa", "122%"),
    ("CC(C)OC(=O)/C1=C/N(CC(C)(C)C2=C1[NH]C3=CC=CC=C23)C(=O)C4=CC=C(F)C(=C4)F", "P12-Ichikawa", "82.9%"),
    ("CN[C@@H](C)[C@H]1[C@H](O)C[C@@]2(C)[C@@H]3CC[C@H]4C(C)(C)[C@@H](NC)CC[C@@]45C[C@@]35CC[C@]12C", "P12-Ichikawa", "105%"),
    ("O=C(O)C1(Cc2cccc(Nc3nccs3)n2)CCC(Oc2cccc(Cl)c2F)CC1 (stereo not given)", "P12-Ichikawa", "65.8%"),
    ("N#CCNC(=O)c1ccc(-c2ccnc(Nc3ccc(N4CCOCC4)cc3)n2)cc1", "P12-Ichikawa", "108%"),
    ("O=C1NC(=O)/C(=C/c2ccc3nccc(-c4ccncc4)c3c2)S1", "P12-Ichikawa", "50.2%"),
    ("O=C1c2ccccc2-[n+]2ccc3c([nH]c4ccccc43)c21", "P12-Ichikawa", "112%"),
]
